# Experiment Notes: Quantitative High-Throughput drug screen in 47 multiple myeloma cell lines against the NCATS MIPE library collection: L363_DSMZ cell viability assay (AID 1918984); also: nearly all actives have a fitted effect of over 40% in size; also: potency is read from the fitted curve at half-maximal effect
# Reported Conditions: L363 myeloma viability, CellTiter-Glo ATP luminescence, 48 h; series mostly up to 45.8 µM
Results filed as inconclusive are left out. Calls of active or inactive are those of the source. Calls follow the shape of the dose curve; as a rule, active = well fitted cell-killing curve with a large enough effect; inconclusive = small, poorly fitted or top-dose-only effect, or effect the other way; inactive = no such curve, though single readings can be large or run the other way.
Value Kind: Potency

Worked examples follow.
Compound: NC1(c2ccc(-c3nc4ccn5c(=O)[nH]nc5c4cc3-c3ccccc3)cc2)CCC1
Potency: 2.64 µM (active)

Compound: Nc1nc(F)nc2c1ncn2[C@@H]1O[C@H](CO)[C@@H](O)[C@@H]1O
Potency: 0.148 µM (active)

Compound: CCOC(=O)[C@H](CCc1ccccc1)N[C@H]1CCc2ccccc2N(CC(=O)O)C1=O
Potency: 7.43 µM (active)

Compound: Cc1ccnc2c1NC(=O)c1cccnc1N2C1CC1
Potency: inactive

// query Can you look up the measured Potency of `COc1ccc2cc3[n+](cc2c1OC)CCc1cc2c(cc1-3)OCO2` for me?
// result 6.62 µM (active)

// query What do you have for `CCOC(=O)[C@H](CCc1ccccc1)N[C@H]1CS[C@H](c2cccs2)CN(CC(=O)O)C1=O` ?
// result 0.662 µM (active)

// query What do you have for `O=NN(CCCl)C(=O)NC1CCCCC1` ?
// result inactive

// query What do you have for `C#CCN[C@@H]1CCc2ccccc21` ?
// result inactive

// query What do you have for `OCc1ccc(-c2nn(Cc3ccccc3)c3ccccc23)o1` ?
// result inactive

====

# Target System: Cytochrome P450 2C9 (Homo sapiens) (UniProt P11712)
# Sequence (P11712 whole entry, looked up): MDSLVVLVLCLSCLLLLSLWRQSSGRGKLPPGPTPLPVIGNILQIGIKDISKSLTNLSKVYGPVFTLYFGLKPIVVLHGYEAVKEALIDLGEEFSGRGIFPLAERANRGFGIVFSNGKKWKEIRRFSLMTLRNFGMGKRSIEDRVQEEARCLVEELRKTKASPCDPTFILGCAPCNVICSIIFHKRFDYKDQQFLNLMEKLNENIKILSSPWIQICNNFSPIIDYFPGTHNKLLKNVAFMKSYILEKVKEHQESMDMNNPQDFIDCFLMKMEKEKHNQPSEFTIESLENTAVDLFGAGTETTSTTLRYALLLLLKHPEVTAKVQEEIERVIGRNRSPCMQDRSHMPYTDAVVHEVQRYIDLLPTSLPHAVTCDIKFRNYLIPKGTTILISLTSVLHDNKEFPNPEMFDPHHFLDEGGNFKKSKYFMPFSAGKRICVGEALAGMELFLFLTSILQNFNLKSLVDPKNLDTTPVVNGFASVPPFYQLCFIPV
# Experiment Notes: Cytochrome P450 family 2 subfamily C member 9 (CYP2C9) small molecule antagonists: luciferase biochemical (cell-free) qHTS assay (AID 1645842); also: nearly all actives have a fitted effect of over 55% in size
# Reported Conditions: P450-Glo CYP2C9 enzyme assay, luciferin luminescence; series mostly up to 57.4 µM
Results filed as inconclusive are left out. Activity calls are given as the source filed them. Calls follow the shape of the dose curve; as a rule, active = well fitted inhibition curve with a large enough effect in the repeat runs; inconclusive = weak or mixed curves; inactive = no such curve, though single readings can be large or run the other way.
I would appreciate it if you answered using one of these outcomes: active, inactive

Solved cases below.
Smiles Notation: C[C@@H]1C[C@H]2[C@@H]3CCC4=CC(=O)C=C[C@]4(C)[C@@]3(Cl)[C@@H](O)C[C@]2(C)[C@@]1(OC(=O)c1ccco1)C(=O)CCl
Assigned Label: active
--
Smiles Notation: COCCCOc1cc(C[C@@H](C[C@H](N)[C@@H](O)C[C@H](C(=O)NCC(C)(C)C(N)=O)C(C)C)C(C)C)ccc1OC
Assigned Label: inactive
--
Smiles Notation: O=c1oc2c(O)c(O)cc3c(=O)oc4c(O)c(O)cc1c4c23
Assigned Label: inactive
--
Smiles Notation: Nc1nc(N)nc(-c2cc(Cl)ccc2Cl)n1
Assigned Label: inactive

Lab note: next compound to report on.
// query Just curious, what result did `COc1cc2c(Nc3ccc(Br)cc3F)ncnc2cc1OCC1CCN(C)CC1` get here?
// result inactive

====

# Experiment Notes: Drug repurposing screens with cells derived from glioblastoma tumor samples (AID 1345199); also: % is scaled to controls: 0 for no effect and ±100 for the full control effect; nearly all actives have a fitted effect of over 40% in size
# Reported Conditions: GBM patient neurospheres viability, ATP luminescence, 48 h; at 45.9 µM (top of the series); tumour line D
Results filed as inconclusive are left out.
Value Kind: activity, negative = cell killing (%)
Numbers only; they are read as %.

Compound: Cc1nnc(NS(=O)(=O)c2ccc(N)cc2)s1
activity, negative = cell killing / %: 17.1
//
Compound: O=C(O)CCn1c2c(c3ccccc31)C[C@H](NS(=O)(=O)c1ccc(F)cc1)CC2
activity, negative = cell killing / %: -7.83
//
Compound: OC(Cn1cncn1)(Cn1cncn1)c1ccc(F)cc1F
activity, negative = cell killing / %: -19.6
//
Compound: CCc1cc(C(N)=S)ccn1
activity, negative = cell killing / %: -29.7
//
Compound: CCOCC(O)COc1ccc(NC(=O)CC[S+](C)C)cc1 (stereo unspecified)
activity, negative = cell killing / %: -30.9

// query Can you look up the measured activity, negative = cell killing of Cc1oc(=O)oc1CN1CCN(c2cc3c(cc2F)c(=O)c(C(=O)O)c2n3C(C)S2)CC1 (stereo unspecified) for me?
// result 7.6

Where do these numbers come from? They come from PubChem BioAssay (NCATS).
